Assay: RSV NHBE CC50 384 V2 (per Ex. U)
Assay type: cell-based
Details: human
CC50 at 3 days strictly less than 1000 nM = criterion met. Otherwise criterion not met.

A selection of reference data follows.
CCCCCCCCCCCCCCCCCCCC[C@H](COP(=O)(O)OC[C@@]1(C#N)O[C@@H](c2ccc3c(N)ncnn23)[C@H](O)[C@@H]1O)Oc1cccc(C#N)c1 = criterion not met
CCCCCCCCCCCCCCCCCCOC[C@H](COP(=O)(O)OC[C@@]1(C#N)O[C@@H](c2ccc3c(N)ncnn23)[C@H](O)[C@@H]1O)Oc1ccc(C#N)nc1 = criterion met

Req: Please state whether CC50 at 3 days is below 1000 nM for "CCCCCCCCCCCCCCCCCCC[C@H](COP(=O)(O)OC[C@@]1(C#N)O[C@@H](c2ccc3c(N)ncnn23)[C@H](O)[C@@H]1O)Oc1ccc(C#N)c(OC(C)C)c1"
Resp: criterion not met

Req: And for "CCCCCCCCCCCCCCCCOC[C@@H](COP(=O)(O)OC[C@@]1(C#N)O[C@@H](c2ccc3c(N)ncnn23)[C@H](O)[C@@H]1O)OCc1cc(Cl)cc(C#N)c1" ?
Resp: criterion not met

Req: Repeat for the following molecule: "CCCCCCCCCCCCCCCC[C@H](COP(=O)(O)OC[C@@]1(C#N)O[C@@H](c2ccc3c(N)ncnn23)[C@H](O)[C@@H]1O)OCc1cc(F)cc(C#N)c1"
Resp: criterion not met
